target: N LKR-CTD (SARS-CoV-2, UniProt P0DTC9 177-369); assay: fluorescence polarization
Property name: Kd

Q: Looking for the measured Kd of UUUCACCUCCCUUUCAGUUU (ssRNA) [20-nt ssRNA] , can you help?
A: 350 nM

// provenance: paper PMC8168301
